I'd be grateful if you could share measured IC50 for these entries.
TARGET_UNDER_TEST: PI3Kα H1047R (T47D cells) (Homo sapiens, UniProt P42336, H1047R)
Construct: endogenous in cells; host or cells: T47D cells
Sequence (P42336 whole entry H1047R): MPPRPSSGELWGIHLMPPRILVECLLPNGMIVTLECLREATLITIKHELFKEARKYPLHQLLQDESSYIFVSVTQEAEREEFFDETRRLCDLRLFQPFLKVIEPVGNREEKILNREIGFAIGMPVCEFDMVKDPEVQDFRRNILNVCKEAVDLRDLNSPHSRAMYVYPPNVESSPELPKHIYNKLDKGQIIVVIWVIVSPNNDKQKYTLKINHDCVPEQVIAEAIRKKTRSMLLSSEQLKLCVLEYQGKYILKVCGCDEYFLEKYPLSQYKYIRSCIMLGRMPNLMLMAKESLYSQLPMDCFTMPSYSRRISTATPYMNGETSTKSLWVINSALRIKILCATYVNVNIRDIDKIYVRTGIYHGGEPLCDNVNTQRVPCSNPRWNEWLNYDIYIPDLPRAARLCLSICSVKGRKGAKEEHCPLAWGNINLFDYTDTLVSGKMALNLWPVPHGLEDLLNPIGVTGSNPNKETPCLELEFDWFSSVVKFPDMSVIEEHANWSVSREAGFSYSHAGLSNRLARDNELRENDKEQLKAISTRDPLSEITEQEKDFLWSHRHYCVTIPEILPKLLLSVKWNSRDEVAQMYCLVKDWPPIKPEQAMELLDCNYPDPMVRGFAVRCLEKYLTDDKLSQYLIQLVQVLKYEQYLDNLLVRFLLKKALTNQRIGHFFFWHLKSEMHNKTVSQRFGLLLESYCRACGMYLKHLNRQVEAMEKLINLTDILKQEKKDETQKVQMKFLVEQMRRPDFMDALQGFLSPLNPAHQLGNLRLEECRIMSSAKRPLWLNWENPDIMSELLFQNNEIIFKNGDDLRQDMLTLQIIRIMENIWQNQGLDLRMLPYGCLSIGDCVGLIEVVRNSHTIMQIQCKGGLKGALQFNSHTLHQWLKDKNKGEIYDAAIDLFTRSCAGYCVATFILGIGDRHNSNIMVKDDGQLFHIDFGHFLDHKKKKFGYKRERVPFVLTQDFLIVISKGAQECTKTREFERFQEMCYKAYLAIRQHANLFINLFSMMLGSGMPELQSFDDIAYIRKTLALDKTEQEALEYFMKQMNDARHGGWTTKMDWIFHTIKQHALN
Sequence (P27986 whole entry partner): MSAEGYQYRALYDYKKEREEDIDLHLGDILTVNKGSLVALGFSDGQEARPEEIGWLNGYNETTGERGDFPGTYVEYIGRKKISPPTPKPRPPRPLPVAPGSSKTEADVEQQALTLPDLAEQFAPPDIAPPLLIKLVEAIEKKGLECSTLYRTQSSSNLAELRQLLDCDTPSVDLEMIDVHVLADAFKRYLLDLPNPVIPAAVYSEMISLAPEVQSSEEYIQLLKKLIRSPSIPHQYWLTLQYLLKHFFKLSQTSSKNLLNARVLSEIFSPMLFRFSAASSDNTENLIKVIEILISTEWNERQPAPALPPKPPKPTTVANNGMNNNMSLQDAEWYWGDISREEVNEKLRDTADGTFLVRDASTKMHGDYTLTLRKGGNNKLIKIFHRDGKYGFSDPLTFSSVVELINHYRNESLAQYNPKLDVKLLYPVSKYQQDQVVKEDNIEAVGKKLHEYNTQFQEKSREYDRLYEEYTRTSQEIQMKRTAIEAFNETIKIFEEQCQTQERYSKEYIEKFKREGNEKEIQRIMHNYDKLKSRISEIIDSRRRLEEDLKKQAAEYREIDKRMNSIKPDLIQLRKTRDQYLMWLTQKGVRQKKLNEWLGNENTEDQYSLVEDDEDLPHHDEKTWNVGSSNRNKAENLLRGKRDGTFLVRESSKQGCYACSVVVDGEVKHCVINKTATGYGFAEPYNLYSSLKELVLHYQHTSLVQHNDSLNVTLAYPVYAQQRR
MEASUREMENT_PROTOCOL: PI3Kα cellular assay: pAKT HTRF in T47D cells after EGF stimulation
Assay type: cell-based
CONDITION_CONTEXT: T47D cells (PI3Kα H1047R), pAKT S473 HTRF, EGF stimulation

Some entries whose results are on file:
Cc1cc(C(C)Nc2ccccc2C(=O)O)c2nc(-c3ccc4c(c3)c(C3CC3)nn4C)cc(=O)n2c1 (stereo not shown) [Compound 736] ... 0.1 to 0.5 µM
Cc1cc(C(C)Nc2cc(F)ccc2C(=O)O)c2nc(-c3cccc(F)c3)c(C)c(=O)n2c1 (stereo not shown) [Compound 1197] ... < 0.1 µM
Cc1cc([C@@H](C)Nc2ccccc2C(=O)O)c2nc(-c3ccc4c(c3)c(C)cn4C)c(C)c(=O)n2c1 (single isomer, unassigned) [Compound 902] ... < 0.1 µM

Now, please, on to the next molecule.
Challenge: Give PI3Kα H1047R (T47D cells) (Homo sapiens, UniProt P42336, H1047R) IC50 for Cc1cc(C(C)Nc2ccccc2S(N)(=O)=O)c2nc(N3C[C@@H](C)O[C@@H](C)C3)cc(=O)n2c1 (stereo partly shown) [Compound 729]
Response given: 0.1 to 0.5 µM
